Reference source for all entries: paper PMC8455617

Kd by entry:
Target: T1, citrate synthase, mitochondrial (Sus scrofa, UniProt P00889)
T1 chain: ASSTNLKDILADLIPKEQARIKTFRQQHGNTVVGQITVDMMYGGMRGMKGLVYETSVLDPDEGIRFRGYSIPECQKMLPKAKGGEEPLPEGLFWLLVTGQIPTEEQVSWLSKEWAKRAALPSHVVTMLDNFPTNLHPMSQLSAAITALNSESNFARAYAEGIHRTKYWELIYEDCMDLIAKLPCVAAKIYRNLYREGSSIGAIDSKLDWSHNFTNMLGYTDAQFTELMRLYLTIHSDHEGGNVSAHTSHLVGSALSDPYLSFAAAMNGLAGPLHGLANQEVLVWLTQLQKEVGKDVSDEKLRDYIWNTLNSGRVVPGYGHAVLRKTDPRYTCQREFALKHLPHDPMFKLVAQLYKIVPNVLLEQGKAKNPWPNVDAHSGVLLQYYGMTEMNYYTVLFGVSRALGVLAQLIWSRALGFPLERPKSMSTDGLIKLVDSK
Assay: MST
Attribute measured: Kd (nM)

malate dehydrogenase, mitochondrial (protein, 10 mM fumarate) AKVAVLGASGGIGQPLSLLLKNSPLVSRLTLYDIAHTPGVAADLSHIETRATVKGYLGPEQLPDCLKGCDVVVIPAGVPRKPGMTRDDLFNTNATIVATLTAACAQHCPDAMICIISNPVNSTIPITAEVFKKHGVYNPNKIFGVTTLDIVRANAFVAELKGLDPARVSVPVIGGHAGKTIIPLISQCTPKVDFPQDQLSTLTGRIQEAGTEVVKAKAGAGSATLSMAYAGARFVFSLVDAMNGKEGVVECSFVKSQETDCPYFSTPLLLGKKGIEKNLGIGKISPFEEKMIAEAIPELKASIKKGEEFVKNMK :: 1580
malate dehydrogenase, mitochondrial (protein, 1.25 mM ATP) AKVAVLGASGGIGQPLSLLLKNSPLVSRLTLYDIAHTPGVAADLSHIETRATVKGYLGPEQLPDCLKGCDVVVIPAGVPRKPGMTRDDLFNTNATIVATLTAACAQHCPDAMICIISNPVNSTIPITAEVFKKHGVYNPNKIFGVTTLDIVRANAFVAELKGLDPARVSVPVIGGHAGKTIIPLISQCTPKVDFPQDQLSTLTGRIQEAGTEVVKAKAGAGSATLSMAYAGARFVFSLVDAMNGKEGVVECSFVKSQETDCPYFSTPLLLGKKGIEKNLGIGKISPFEEKMIAEAIPELKASIKKGEEFVKNMK :: 1060
malate dehydrogenase, mitochondrial (protein, 10 mM oxaloacetate and NADH) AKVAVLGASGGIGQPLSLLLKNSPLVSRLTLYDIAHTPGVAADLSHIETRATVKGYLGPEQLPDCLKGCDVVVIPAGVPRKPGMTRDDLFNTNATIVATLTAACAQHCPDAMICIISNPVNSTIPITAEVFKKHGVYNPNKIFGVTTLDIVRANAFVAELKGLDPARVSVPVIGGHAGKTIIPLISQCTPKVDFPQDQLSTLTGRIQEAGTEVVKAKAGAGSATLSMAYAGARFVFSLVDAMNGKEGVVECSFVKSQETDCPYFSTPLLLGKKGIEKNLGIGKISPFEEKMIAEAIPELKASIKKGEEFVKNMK :: 2010
malate dehydrogenase, mitochondrial (protein, 10 mM succinate) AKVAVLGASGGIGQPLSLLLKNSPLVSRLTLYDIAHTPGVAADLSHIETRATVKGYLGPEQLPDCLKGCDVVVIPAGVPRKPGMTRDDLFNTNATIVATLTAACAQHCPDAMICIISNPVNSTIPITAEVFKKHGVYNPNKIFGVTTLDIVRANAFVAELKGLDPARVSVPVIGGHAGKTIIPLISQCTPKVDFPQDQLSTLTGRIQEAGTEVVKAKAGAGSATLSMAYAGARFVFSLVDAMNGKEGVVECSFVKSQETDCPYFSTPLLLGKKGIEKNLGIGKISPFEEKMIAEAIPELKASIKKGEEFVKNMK :: 180
